# experimental-system: AMPA receptors
# experiment-summary: Displacement of 3H-AMPA binding, rat forebrain membranes
# condition-summary: read-out: IC₅₀ (displacement of ³H-AMPA binding)
pIC50: −log10 of the molar value.
property: pIC50

Q: Would you mind telling me what pIC50 value was observed for CCOC(=O)C1C(=O)Nc2cc([N+](=O)[O-])c([N+](=O)[O-])cc2C1=O (stereo not shown) ?
Result: > 4.30
